Assayed Target: UniProtKB Q17SB2
Experiment: Inhibition of Plasmodium falciparum plasmepsin 4 using DABCYL-Glu-Arg-Nle-Phe-Leu-Ser-Phe-Pro-EDANS as substrate preincubated for 30 mins followed by substrate addition and measured every min for 8 to 15 mins by FRET assay
Attribute: pIC50
Just the number, please; pIC50 means minus log10 of the concentration in mol/L.

For the compound "CCCN(CCC)C(=O)c1cc(Cl)cc(C(=O)N[C@@H](Cc2ccccc2)[C@H](O)CNC(C)(C)c2cccc(OC)c2)c1" , what pIC50 is on record?
8.10

Field entry: "COc1cccc(C(C)(C)NC[C@@H](O)[C@H](Cc2ccccc2)NC(=O)c2cc(C(=O)NCCCO)cc(N3CCCCC3)c2)c1"
7.03

Also "COc1cccc(C(C)(C)NC[C@@H](O)[C@H](Cc2ccccc2)NC(=O)c2cc(C(=O)N(CC(C)C)CC(C)C)cc(N3CCCCC3)c2)c1" ?
6.30

Check "COCCN(CCOC)C(=O)c1cc(C(=O)N[C@@H](Cc2ccccc2)[C@H](O)CNC(C)(C)c2cccc(OC)c2)cc(N2CCCCC2)c1" too.
7.43

* * *

Property: log10 IC50; scope: individual molecules
Assayed Target: UniProt:P39898
Experiment: Inhibition of Plasmodium falciparum plasmepsin 1 using DABCYL-Glu-Arg-Nle-Phe-Leu-Ser-Phe-Pro-EDANS as substrate preincubated for 30 mins followed by substrate addition and measured every min for 8 to 15 mins by FRET assay
Heads up: the numbers are on a log10 scale; they represent IC50 in µM.

Examples with their reported log10 IC50 follow.
COc1cccc(C(C)(C)NC[C@@H](O)[C@H](Cc2ccccc2)NC(=O)c2cc(C(=O)NCCC(F)(F)F)cc(N3CCCCC3)c2)c1 ... 0.40
COc1cccc(C(C)(C)NC[C@@H](O)[C@H](Cc2ccccc2)NC(=O)c2cc(C(=O)NCC(C)(C)C)cc(N3CCCCC3)c2)c1 ... 0.30
COc1cccc(C(C)(C)NC[C@@H](O)[C@H](Cc2ccccc2)NC(=O)c2cc(C(=O)NCC(C)(C)OC)cc(N3CCCCC3)c2)c1 ... 0.87
CCCN(CCC)C(=O)c1cc(C(=O)N[C@@H](Cc2ccccc2)[C@H](O)CNC(C)(C)c2cccc(OC)c2)cc(C(=O)N(CCC)CCC)c1 ... -0.11
COc1cccc(C(C)(C)NC[C@@H](O)[C@H](Cc2ccccc2)NC(=O)c2cc(C(=O)NCC3CC3)cc(N3CCCCC3)c2)c1 ... 0.26

Now look at this one.
// returns reported log10 IC50 for input "COc1cccc(C(C)(C)NC[C@@H](O)[C@H](Cc2ccccc2)NC(=O)c2cccc(C(=O)NCCC(F)(F)F)c2)c1"
1.01

* * *

For reference, pIC50 measured on Plasmepsin I (Plasmodium falciparum, UniProt P39898):
Conceptually, pIC50 converts a concentration in mol/L into minus its log10.

Previously resolved entries follow.
CCCN(CCC)C(=O)c1cccc(C(=O)N[C@@H](Cc2ccccc2)[C@H](O)CNC(C)(C)c2cccc(OC)c2)c1 ... 5.51
CCCN(CCC)C(=O)c1cc(F)cc(C(=O)N[C@@H](Cc2ccccc2)[C@H](O)CNC(C)(C)c2cccc(OC)c2)c1 ... 5.96
CCN(CC)C(=O)c1cc(C(=O)N[C@@H](Cc2ccccc2)[C@H](O)CNC(C)(C)c2cccc(OC)c2)cc(N2CCCCC2)c1 ... 6.10

Moving on to the next compound.
Please give the measured pIC50 for this compound: "COc1cccc(C(C)(C)NC[C@@H](O)[C@H](Cc2ccccc2)NC(=O)c2cccc(C(=O)NCC(C)(C)C)c2)c1"
5.25

* * *

# IC50 annotations
Assayed Target: Plasmepsin II (Plasmodium falciparum, UniProt P46925)
Sequence (P46925 whole entry): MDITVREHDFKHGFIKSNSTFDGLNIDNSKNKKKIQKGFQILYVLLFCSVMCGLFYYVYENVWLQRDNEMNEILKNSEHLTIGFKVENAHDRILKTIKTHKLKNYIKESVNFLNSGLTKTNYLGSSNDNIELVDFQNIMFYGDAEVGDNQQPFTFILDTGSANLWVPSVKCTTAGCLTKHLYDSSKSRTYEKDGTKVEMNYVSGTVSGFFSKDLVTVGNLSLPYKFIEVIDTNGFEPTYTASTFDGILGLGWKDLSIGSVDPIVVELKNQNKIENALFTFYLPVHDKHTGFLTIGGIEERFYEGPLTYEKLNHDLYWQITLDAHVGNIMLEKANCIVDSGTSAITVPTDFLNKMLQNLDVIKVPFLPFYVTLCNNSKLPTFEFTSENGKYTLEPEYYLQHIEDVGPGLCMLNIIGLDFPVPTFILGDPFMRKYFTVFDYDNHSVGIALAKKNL
Kindly answer with a numeric value in µM, unit omitted.

Worked set:
CCCN(CCC)C(=O)c1cccc(C(=O)N[C@@H](Cc2ccccc2)[C@H](O)CNC(C)(C)c2cccc(OC)c2)c1 ... 1.7
CCCN(CCC)C(=O)c1cc(F)cc(C(=O)N[C@@H](Cc2ccccc2)[C@H](O)CNC(C)(C)c2cccc(OC)c2)c1 ... 1.1

Now look at this entry.
Recorded IC50 for "CCCN(CCC)C(=O)c1cc(C(=O)N[C@@H](Cc2ccccc2)[C@H](O)CNC(C)(C)c2cccc(OC)c2)cc(C(=O)N(CCC)CCC)c1" , please?
0.27

* * *

Here, each record is paired with measured pIC50 data.
Assayed Target: Plasmepsin 4 (Plasmodium falciparum)
Sequence (Q17SB2 whole entry): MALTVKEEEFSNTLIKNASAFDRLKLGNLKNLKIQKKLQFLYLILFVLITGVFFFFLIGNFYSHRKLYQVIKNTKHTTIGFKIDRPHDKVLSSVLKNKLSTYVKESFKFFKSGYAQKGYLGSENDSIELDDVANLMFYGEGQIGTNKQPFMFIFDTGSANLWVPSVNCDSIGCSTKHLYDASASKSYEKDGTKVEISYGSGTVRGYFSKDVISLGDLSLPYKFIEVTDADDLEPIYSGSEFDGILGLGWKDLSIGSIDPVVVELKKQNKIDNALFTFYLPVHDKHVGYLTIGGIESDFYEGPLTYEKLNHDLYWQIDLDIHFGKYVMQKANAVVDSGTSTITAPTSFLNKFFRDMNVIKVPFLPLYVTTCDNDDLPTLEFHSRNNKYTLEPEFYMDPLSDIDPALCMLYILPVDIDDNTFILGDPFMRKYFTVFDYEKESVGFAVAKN
pIC50 (log units): -log10 of the concentration in mol/L.

Request - read-out pIC50 | tested on Plasmepsin 4 (Plasmodium falciparum) | molecule "COc1cccc(C(C)(C)NC[C@@H](O)[C@H](Cc2ccccc2)NC(=O)c2cc(C(=O)N(C)C)cc(N3CCCCC3)c2)c1"
7.06

Repeat with "COCCNC(=O)c1cc(C(=O)N[C@@H](Cc2ccccc2)[C@H](O)CNC(C)(C)c2cccc(OC)c2)cc(N2CCCCC2)c1"
7.30

Field entry: "COc1cccc(C(C)(C)NC[C@@H](O)[C@H](Cc2ccccc2)NC(=O)c2cc(C(=O)NCc3ccccc3)cc(N3CCCCC3)c2)c1"
7.42

* * *

Values of pIC50 reported for UniProt:P07339 appear below.
# reply with the number alone; pIC50 is -log10 of concentration in mol/L

Recorded results for 2 molecules are shown here.
CCN(CC)C(=O)c1cc(C(=O)N[C@@H](Cc2ccccc2)[C@H](O)CNC(C)(C)c2cccc(OC)c2)cc(N2CCCCC2)c1 ... 6.60
CCCN(CCC)C(=O)c1cc(C(=O)N[C@@H](Cc2ccccc2)[C@H](O)CNC(C)(C)c2cccc(OC)c2)cc(C(F)(F)F)c1 ... 7.17

Tell me the measured pIC50 of "COc1cccc(C(C)(C)NC[C@@H](O)[C@H](Cc2ccccc2)NC(=O)c2cc(C(=O)NCCCO)cc(N3CCCCC3)c2)c1" , please.
5.65

Also need "COc1cccc(C(C)(C)NC[C@@H](O)[C@H](Cc2ccccc2)NC(=O)c2cc(C(=O)N(CCC(F)(F)F)CCC(F)(F)F)cc(N3CCCCC3)c2)c1" , thanks.
6.92

Likewise for "CCCN(CCC)C(=O)c1cc(Cl)cc(C(=O)N[C@@H](Cc2ccccc2)[C@H](O)CNC(C)(C)c2cccc(OC)c2)c1" ?
7.02

And the next one, "COc1cccc(C(C)(C)NC[C@@H](O)[C@H](Cc2ccccc2)NC(=O)c2cc(C(=O)NCC(C)(C)C)cc(N3CCCCC3)c2)c1" ?
6.40

Repeat for the following molecule: "COc1cccc(C(C)(C)NC[C@@H](O)[C@H](Cc2ccccc2)NC(=O)c2cc(C(=O)NCCN(C)C)cc(N3CCCCC3)c2)c1"
5.32

* * *

Record: log10 of IC50 reported on Cathepsin D (Homo sapiens).
Sequence (P07339 65-162 limits assumed): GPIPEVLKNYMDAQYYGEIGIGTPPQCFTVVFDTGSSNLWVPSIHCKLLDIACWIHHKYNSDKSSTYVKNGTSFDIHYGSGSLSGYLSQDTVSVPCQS
Sequence (P07339 169-412 limits assumed): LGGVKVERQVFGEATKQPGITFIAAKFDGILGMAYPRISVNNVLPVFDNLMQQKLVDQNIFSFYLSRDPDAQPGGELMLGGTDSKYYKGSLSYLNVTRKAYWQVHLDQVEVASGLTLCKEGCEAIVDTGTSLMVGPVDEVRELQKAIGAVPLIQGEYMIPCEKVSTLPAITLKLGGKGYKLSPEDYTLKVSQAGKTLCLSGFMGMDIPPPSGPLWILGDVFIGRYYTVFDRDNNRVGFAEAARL
Kindly note that the scale is log10 and the underlying IC50 is in µM.

Worked examples, 6 molecules total:
COc1cccc(C(C)(C)NC[C@@H](O)[C@H](Cc2ccccc2)NC(=O)c2cc(C(=O)NCC3CCCCC3)cc(N3CCCCC3)c2)c1 ... -0.82
COc1cccc(C(C)(C)NC[C@@H](O)[C@H](Cc2ccccc2)NC(=O)c2cc(C(=O)NCCOC(C)(C)C)cc(N3CCCCC3)c2)c1 ... -0.82
COc1cccc(C(C)(C)NC[C@@H](O)[C@H](Cc2ccccc2)NC(=O)c2cc(C(=O)NCC(C)(C)OC)cc(N3CCCCC3)c2)c1 ... 0.32
COc1cccc(C(C)(C)NC[C@@H](O)[C@H](Cc2ccccc2)NC(=O)c2cc(C(=O)NCC(C)(C)O)cc(N3CCCCC3)c2)c1 ... 0.22
COCCN(CCOC)C(=O)c1cc(C(=O)N[C@@H](Cc2ccccc2)[C@H](O)CNC(C)(C)c2cccc(OC)c2)cc(N2CCCCC2)c1 ... -1.00
COCCNC(=O)c1cc(C(=O)N[C@@H](Cc2ccccc2)[C@H](O)CNC(C)(C)c2cccc(OC)c2)cc(N2CCCCC2)c1 ... -0.12

What value of log10 of IC50 has been recorded for this entry: "COc1cccc(C(C)(C)NC[C@@H](O)[C@H](Cc2ccccc2)NC(=O)c2cc(C(=O)N(CCO)CCO)cc(N3CCCCC3)c2)c1"
-0.57

* * *

Assayed Target: UniProt:P07339
Reported Endpoint: pIC50
The read-out pIC50 is expressed as -log10 of concentration in moles per litre.

Use these answered entries as a reference point.
CCCN(CCC)C(=O)c1cc(F)cc(C(=O)N[C@@H](Cc2ccccc2)[C@H](O)CNC(C)(C)c2cccc(OC)c2)c1 ... 6.00
COc1cccc(C(C)(C)NC[C@@H](O)[C@H](Cc2ccccc2)NC(=O)c2cccc(C(=O)NCCC(F)(F)F)c2)c1 ... 5.31
COc1cccc(C(C)(C)NC[C@@H](O)[C@H](Cc2ccccc2)NC(=O)c2cc(C(=O)NCC3CC3)cc(N3CCCCC3)c2)c1 ... 6.12
COc1cccc(C(C)(C)NC[C@@H](O)[C@H](Cc2ccccc2)NC(=O)c2cccc(C(=O)NCC(C)(C)C)c2)c1 ... 5.42
CCCN(CCC)C(=O)c1cccc(C(=O)N[C@@H](Cc2ccccc2)[C@H](O)CNC(C)(C)c2cccc(OC)c2)c1 ... 5.94
COc1cccc(C(C)(C)NC[C@@H](O)[C@H](Cc2ccccc2)NC(=O)c2cc(C(=O)NCc3ccccc3)cc(N3CCCCC3)c2)c1 ... 6.66
CCCN(CCC)C(=O)c1cc(C#N)cc(C(=O)N[C@@H](Cc2ccccc2)[C@H](O)CNC(C)(C)c2cccc(OC)c2)c1 ... 6.25
CCCN(CCC)C(=O)c1cc(C(=O)N[C@@H](Cc2ccccc2)[C@H](O)CNC(C)(C)c2cccc(OC)c2)cc(C(=O)N(CCC)CCC)c1 ... 6.15
COc1cccc(C(C)(C)NC[C@@H](O)[C@H](Cc2ccccc2)NC(=O)c2cc(C(=O)NC(C)(C)CO)cc(N3CCCCC3)c2)c1 ... 5.84
CCCN(CCC)C(=O)c1cc(C)cc(C(=O)N[C@@H](Cc2ccccc2)[C@H](O)CNC(C)(C)c2cccc(OC)c2)c1 ... 6.68

Fill in: pIC50 of "COc1cccc(C(C)(C)NC[C@@H](O)[C@H](Cc2ccccc2)NC(=O)c2cc(C(=O)N(CC(C)C)CC(C)C)cc(N3CCCCC3)c2)c1" is ___
5.89

How about this compound: "COc1cccc(C(C)(C)NC[C@@H](O)[C@H](Cc2ccccc2)NC(=O)c2cc(C(=O)NCCO)cc(N3CCCCC3)c2)c1"
5.85

Another: "COc1cccc(C(C)(C)NC[C@@H](O)[C@H](Cc2ccccc2)NC(=O)c2cc(C(=O)N(C)C)cc(N3CCCCC3)c2)c1"
6.30

Request: "COc1cccc(C(C)(C)NC[C@@H](O)[C@H](Cc2ccccc2)NC(=O)c2cc(C(=O)NCCC(F)(F)F)cc(N3CCCCC3)c2)c1"
6.24
